- Subject Of Test: T1, human CD19 (on Raji cells, CD19+ homo sapiens Burkitt's lymphoma) (human, UniProt P15391 20-556)
- T1 construct: whole, on cells; also called B-lymphocyte antigen CD19; B4
- T1 sequence (looked up): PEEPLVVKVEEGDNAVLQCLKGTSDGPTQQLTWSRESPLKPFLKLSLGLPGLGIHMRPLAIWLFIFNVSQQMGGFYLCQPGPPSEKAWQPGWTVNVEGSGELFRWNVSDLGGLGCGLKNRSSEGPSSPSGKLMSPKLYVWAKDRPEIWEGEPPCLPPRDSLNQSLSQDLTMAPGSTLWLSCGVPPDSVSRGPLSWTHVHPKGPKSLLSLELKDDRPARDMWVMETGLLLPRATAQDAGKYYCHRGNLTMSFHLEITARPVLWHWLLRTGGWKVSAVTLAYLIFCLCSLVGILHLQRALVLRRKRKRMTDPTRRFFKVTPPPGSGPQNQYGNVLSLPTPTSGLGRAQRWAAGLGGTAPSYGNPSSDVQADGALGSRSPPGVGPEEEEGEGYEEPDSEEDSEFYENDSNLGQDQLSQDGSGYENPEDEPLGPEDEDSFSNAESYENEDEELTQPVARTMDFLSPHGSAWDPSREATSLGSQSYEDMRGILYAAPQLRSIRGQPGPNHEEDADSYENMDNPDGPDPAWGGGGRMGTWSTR
- Experimental Details: flow cytometry titration on Raji cells, anti-His FITC; scFv at log(nM) 1.568636
Consider the following binders and their measured geometric mean (FACS titration) readings.
Give your answer as a number; write no unit.

Qu. Complete the entry with geometric mean (FACS titration) for SS-scFv (scFv, leader left out here) scFv: DIQMTQSPSFLSASVGDRVTITCRASQDISKYLNWYQQKPDQAPKLLIKHTSRLHSGVPSRFSGSGSGTDFTFTISSLQPEDIATYYCQQGNTLPYTFGQGTKLEIKGSTSGSGKPGSGEGSTKGEVQLVESGGGLVQPGRSLRLSCTASGVSLPDYGVSWVRQPPGKGLEWIGVIWGSETTYYNSALKSRFTISRDNSKNTLYLQMNSLRAEDTAVYYCAKHYYYGGSYAMDYWGQGTLVTVSSHHHHHH
Ans. 19.3

Qu. Complete the entry with geometric mean (FACS titration) for AS-scFv (scFv, leader left out here) scFv: DIQMTQSPSTLSASVGDRVTITCRASQDISKYLNWYQQKPDQAPKLLIKHTSRLHSGVPSRFSGSGSGTDFTFTISSLQPEDIATYYCQQGNTLPYTFGQGTKLEIKGSTSGSGKPGSGEGSTKGQVQLQESGPGLVKPSGTLSLTCAVSGVSLPDYGVSWIRQPPGKGLEWIGVIWGSETTYYNSALKSRVTISRDNSKNTLYLQMNSLRAEDTAVYYCAKHYYYGGSYAMDYWGQGTLVTVSSHHHHHH
Ans. 19.4

Qu. Complete the entry with geometric mean (FACS titration) for NS-scFv (scFv, leader left out here) scFv: DIQMTQSPSSLSASVGDRVTITCRASQDISKYLNWYQQKPGKAVKLLIYHTSRLHSGVPSRFSGSGSGTDYTLTISSLQPEDIATYFCQQGNTLPYTFGGGTKLEIKGSTSGSGKPGSGEGSTKGQVQLQESGPGLVKPSETLSVTCTVSGVSLPDYGVSWIRQPPGKGLEWLGVIWGSETTYYNSALKSRLTISKDTSKNQVFLKMSSLTAADTAIYYCAKHYYYGGSYAMDYWGQGTLVTVSSHHHHHH
Ans. 41.2

Qu. Complete the entry with geometric mean (FACS titration) for JS-scFv (scFv, leader left out here) scFv: DIQMTQSPSSLSASVGDRVTITCRASQDISKYLNWYQQKPDQAPKLLIKHTSRLHSGVPSRFSGSGSGTDYTLTISSLQPEDFATYYCQQGNTLPYTFGQGTKLEIKGSTSGSGKPGSGEGSTKGEVQLVESGGGLVQPGRSLRLSCTASGVSLPDYGVSWIRQPPGKGLEWIGVIWGSETTYYNSALKSRFTISRDNSKNTLYLQMNSLRAEDTAVYYCAKHYYYGGSYAMDYWGQGTLVTVSSHHHHHH
Ans. 25.7
